# Target under test: human PD-1 (human) (UniProt Q15116)
# Sequence (Q15116 25-288): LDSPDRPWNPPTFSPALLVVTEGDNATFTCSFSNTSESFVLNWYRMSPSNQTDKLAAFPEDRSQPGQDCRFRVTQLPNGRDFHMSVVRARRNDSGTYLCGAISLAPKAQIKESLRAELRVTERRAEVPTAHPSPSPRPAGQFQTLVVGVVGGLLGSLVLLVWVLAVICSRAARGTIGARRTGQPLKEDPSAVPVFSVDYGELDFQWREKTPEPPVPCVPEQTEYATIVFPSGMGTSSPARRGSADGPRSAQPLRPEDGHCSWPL
Quantity kind: IFN gamma levels pg/mL (MLR) (pg/mL)

These solved cases illustrate the format of a correct answer.
binder="variant PD-L2 IgV I13V/H15Q/S39I/E44D/S67L Fc fusion (Fc fusion) LFTVTVPKELYIVEQGSNVTLECNFDTGSHVNLGAITAILQKVDNDTSPHRERATLLEEQLPLGKALFHIPQVQVRDEGQYQCIIIYGVAWDYKYLTLKVKA" test_value=1260
binder="variant PD-L2 IgV S67L/V89D Fc fusion (Fc fusion) LFTVTVPKELYIIEHGSNVTLECNFDTGSHVNLGAITASLQKVENDTSPHRERATLLEEQLPLGKALFHIPQVQVRDEGQYQCIIIYGDAWDYKYLTLKVKA" test_value=1230
binder="variant PD-L2 IgV F2L/H15Q/D46E/T47A/Q72H/R76G/Q82R/V89D Fc fusion (Fc fusion) LLTVTVPKELYIIEQGSNVTLECNFDTGSHVNLGAITASLQKVENEASPHRERATLLEEQLPLGKASFHIPHVQVGDEGQYRCIIIYGDAWDYKYLTLKVKA" test_value=1170
binder="variant PD-L2 IgV H15Q/K65R Fc fusion (Fc fusion) LFTVTVPKELYIIEQGSNVTLECNFDTGSHVNLGAITASLQKVENDTSPHRERATLLEEQLPLGRASFHIPQVQVRDEGQYQCIIIYGVAWDYKYLTLKVKA" test_value=1510
binder="variant PD-L2 IgV I13V/H15Q/T47A/S67L/Q72H/R76G/Q82R/V89D Fc fusion (Fc fusion) LFTVTVPKELYIVEQGSNVTLECNFDTGSHVNLGAITASLQKVENDASPHRERATLLEEQLPLGKALFHIPHVQVGDEGQYRCIIIYGDAWDYKYLTLKVKA" test_value=1560

(1) variant PD-L2 IgV I13V/H15Q/T47A/Q72H/R76G Fc fusion (Fc fusion) LFTVTVPKELYIVEQGSNVTLECNFDTGSHVNLGAITASLQKVENDASPHRERATLLEEQLPLGKASFHIPHVQVGDEGQYQCIIIYGVAWDYKYLTLKVKA
(2) variant PD-L2 IgV S67L/I86T Fc fusion (Fc fusion) LFTVTVPKELYIIEHGSNVTLECNFDTGSHVNLGAITASLQKVENDTSPHRERATLLEEQLPLGKALFHIPQVQVRDEGQYQCIITYGVAWDYKYLTLKVKA
Ask: Larger number for IFN gamma levels pg/mL (MLR): 1 , or 2 ? # reply format: chosen label
Reply: 1
(1: 1470 pg/mL, 2: 1020 pg/mL)
